// other: Biotinylated mAb 4C3 bound to Bla g 2 (%) lookup, one value per entry
# System: monoclonal antibody 4C3 (anti-Bla g 2)
# Sequence (chain, as listed by the source, chain 1 of 2): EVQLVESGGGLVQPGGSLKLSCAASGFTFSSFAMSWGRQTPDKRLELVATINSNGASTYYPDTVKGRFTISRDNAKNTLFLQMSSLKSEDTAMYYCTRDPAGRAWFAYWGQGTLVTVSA
# Sequence (chain, as listed by the source, chain 2 of 2): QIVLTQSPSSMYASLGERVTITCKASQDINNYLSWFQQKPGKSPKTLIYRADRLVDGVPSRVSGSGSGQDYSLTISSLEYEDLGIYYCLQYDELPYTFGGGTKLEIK
# Assay info: competition ELISA
# Condition info: chain shown with the change; competitor concentration 1 µg/ml; solid phase rBla g 2-N93Q; parent: est. 32; read off a plot
Write the number in % without appending the unit.

These recorded examples may help you get a feel for the data.
>>> measured_number("recombinant Bla g 2-N93Q E233R; I199W (protein) VPLYKLVHVFINTQYAGITKIGNQNFLTVFDSTSCNVVVASQECVGGACVCPNLQKYEKLKPKYISDGNVQVKFFDTGSAVGRGIEDSLTISQLTTSQQDIVLADELSQEVCILSADVVVGIAAPGCPNALKGKTVLENFVEENLIAPVFSIHHARFQDGEHFGEIIFGGSDWKYVDGEFTYVPLVGDDSWKFRLDGVKWGDTTVAPAGTQAIIDTSKAIIVGPKAYVNPINRAIGCVVEKTTTRRICKLDCSKIPSLPDVTFVINGRNFNISSQYYIQQNGNLCYSGFQPCGHSDHFFIGDFFVDHYYSEFNWENKTMGFGRSVESV")
100
>>> measured_number("recombinant Bla g 2-N93Q K251A (protein) VPLYKLVHVFINTQYAGITKIGNQNFLTVFDSTSCNVVVASQECVGGACVCPNLQKYEKLKPKYISDGNVQVKFFDTGSAVGRGIEDSLTISQLTTSQQDIVLADELSQEVCILSADVVVGIAAPGCPNALKGKTVLENFVEENLIAPVFSIHHARFQDGEHFGEIIFGGSDWKYVDGEFTYVPLVGDDSWKFRLDGVKIGDTTVAPAGTQAIIDTSKAIIVGPKAYVNPINEAIGCVVEKTTTRRICKLDCSAIPSLPDVTFVINGRNFNISSQYYIQQNGNLCYSGFQPCGHSDHFFIGDFFVDHYYSEFNWENKTMGFGRSVESV")
100

# context switch: different binder, same other: Biotinylated mAb 4C3 bound to Bla g 2 (%)
Item recombinant Bla g 2-N93Q D248A (protein) VPLYKLVHVFINTQYAGITKIGNQNFLTVFDSTSCNVVVASQECVGGACVCPNLQKYEKLKPKYISDGNVQVKFFDTGSAVGRGIEDSLTISQLTTSQQDIVLADELSQEVCILSADVVVGIAAPGCPNALKGKTVLENFVEENLIAPVFSIHHARFQDGEHFGEIIFGGSDWKYVDGEFTYVPLVGDDSWKFRLDGVKIGDTTVAPAGTQAIIDTSKAIIVGPKAYVNPINEAIGCVVEKTTTRRICKLACSKIPSLPDVTFVINGRNFNISSQYYIQQNGNLCYSGFQPCGHSDHFFIGDFFVDHYYSEFNWENKTMGFGRSVESV has what recorded other: Biotinylated mAb 4C3 bound to Bla g 2 (%)?
7
